# SYSTEM_TESTED: ERBB4 (human)
# EXPERIMENT_DESCRIPTION: KINOMEscan competition binding
# APPLIED_CONDITIONS: compound 10.0 µM
For each record, check the reported kinase still bound, per cent of control: if it is below 60% write class 1, else write class 0.

stdin: Confirm or reject: kinase still bound, per cent of control of CCN(CC)CCCCNc1ncc2cc(-c3cc(OC)cc(OC)c3)c(NC(=O)NC(C)(C)C)nc2n1 lies strictly below 60%
stdout: class 0

stdin: Confirm or reject: kinase still bound, per cent of control of O=C(Nc1cccc(Nc2ncc(Br)c(NCCc3cnc[nH]3)n2)c1)N1CCCC1 lies strictly below 60%
stdout: class 1

stdin: Confirm or reject: kinase still bound, per cent of control of O=C1NC(=O)/C(=C/c2ccc3nccc(-c4ccncc4)c3c2)S1 lies strictly below 60%
stdout: class 0

stdin: Confirm or reject: kinase still bound, per cent of control of CNC(=O)c1ccc(Nc2cc(Nc3ccccc3S(=O)(=O)C(C)C)c3cc[nH]c3n2)nc1 lies strictly below 60%
stdout: class 0

stdin: Confirm or reject: kinase still bound, per cent of control of Cc1n[nH]c2ccc(-c3cncc(OC[C@@H](N)Cc4c[nH]c5ccccc45)c3)cc12 lies strictly below 60%
stdout: class 0

stdin: Confirm or reject: kinase still bound, per cent of control of COCC(=O)NC/C=C/c1ccc2ncnc(Nc3ccc(Oc4ccc(C)nc4)c(C)c3)c2c1 lies strictly below 60%
stdout: class 1

stdin: Confirm or reject: kinase still bound, per cent of control of CCN1CCN(C(=O)Cc2ccc(Nc3ncc(F)c(Nc4ccc(C(=O)Nc5ccccc5Cl)cc4)n3)cc2)CC1 lies strictly below 60%
stdout: class 1

stdin: Confirm or reject: kinase still bound, per cent of control of CCN(CC)CCCCNc1ncc2c(n1)N(C)C(=O)N(c1c(Cl)c(OC)cc(OC)c1Cl)C2 lies strictly below 60%
stdout: class 0

stdin: Confirm or reject: kinase still bound, per cent of control of COc1cc(C(=O)N2CCC(N3CCN(C)CC3)CC2)ccc1Nc1ncc2c(n1)N(C)c1ccccc1C(=O)N2C lies strictly below 60%
stdout: class 0

stdin: Confirm or reject: kinase still bound, per cent of control of NC(=O)Nc1cc(-c2cccc(F)c2)sc1C(=O)N[C@@H]1CCCNC1 lies strictly below 60%
stdout: class 1

Values were extracted from the kinase profiling compilation of Christmann-Franck et al. (2016).
